Target: T1, CEACAM1 antigen (Sino Biological, Inc.) (UniProt P13688 35-428)
T1 construct: Bought antigen coated on the ELISA plate; construct not described; also called CEACAM1 (CD66a) antigen; CD66a
T1 sequence (looked up): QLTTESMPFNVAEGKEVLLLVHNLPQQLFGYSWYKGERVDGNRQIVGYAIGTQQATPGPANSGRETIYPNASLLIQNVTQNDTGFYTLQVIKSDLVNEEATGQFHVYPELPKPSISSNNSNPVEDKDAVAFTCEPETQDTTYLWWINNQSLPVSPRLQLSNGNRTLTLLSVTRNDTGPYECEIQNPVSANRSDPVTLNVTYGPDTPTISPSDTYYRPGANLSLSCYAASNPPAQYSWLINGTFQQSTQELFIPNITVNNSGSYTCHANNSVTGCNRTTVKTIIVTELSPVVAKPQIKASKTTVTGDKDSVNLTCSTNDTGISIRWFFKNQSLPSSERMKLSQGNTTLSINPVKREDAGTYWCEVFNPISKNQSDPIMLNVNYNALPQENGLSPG
Assay: ELISA, coated CEACAM1 100 ng/well, antibody 370.37 ng/ml
property: OD 450 nm (OD)
Your answer is read as OD, so omit the unit and give the number.

Quick note, OD 450 nm for recombinant humanized anti-CD66c antibody Protein ID 3043 (Vk8 + VH6) (antibody, human IgG1, V domains shown, also called hu 3043; #71) VH: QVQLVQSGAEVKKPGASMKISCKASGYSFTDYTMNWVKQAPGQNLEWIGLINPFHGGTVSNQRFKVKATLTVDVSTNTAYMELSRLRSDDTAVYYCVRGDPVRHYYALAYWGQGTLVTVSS VL: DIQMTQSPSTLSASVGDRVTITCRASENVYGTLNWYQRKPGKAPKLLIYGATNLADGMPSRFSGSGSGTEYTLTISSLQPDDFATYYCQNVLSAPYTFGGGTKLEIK landed at 0.8
